The measurements presented in this section are drawn from patent US10703764B2.

# system_tested: BRD4 BD2 (Homo sapiens, UniProt O60885)
# experimental_details: AlphaScreen binding assay, BRD4 Bromodomain 2
measurement_name: IC50

- molecule: "CC(=O)N1c2ccc(-c3cnn(Cc4nonc4C)c3)cc2N(C(=O)OC(C)C)C[C@@H]1C [Example I-677]"
  system_tested: "BRD4 BD2 (Homo sapiens, UniProt O60885)"
  IC50: "50 to 500 nM"

Shifting focus to the molecule that follows.
// recorded IC50 for CC(=O)N1c2ccc(-c3cccc(NS(=O)(=O)N(C)C)c3)cc2N(C(=O)OC2CCOCC2)C[C@@H]1C [Example I-1274] : 50 to 500 nM

###

# system_tested: BRD4 BD1 (Homo sapiens)
# experimental_details: AlphaScreen binding assay, BRD4 Bromodomain 1
Listing of entries alongside the reported IC50.

// below: answered molecules
- sample_smiles: "CC(=O)N1c2ccccc2N(CC2CCOCC2)C[C@@H]1C"
  system_tested: "BRD4 BD1 (Homo sapiens)"
  IC50: "> 10000 nM"
- sample_smiles: "CC(C)OC(=O)N1C[C@H](C)N(C(=O)C2CC2)c2ccc(-c3cnn(CC4CCC4)c3)cc21"
  system_tested: "BRD4 BD1 (Homo sapiens)"
  IC50: "1000 to 10000 nM"
- sample_smiles: "CC(=O)N1c2ccc(-c3cnn(C4COC4)c3)cc2N(C(=O)C(F)F)C[C@@H]1C"
  system_tested: "BRD4 BD1 (Homo sapiens)"
  IC50: "> 10000 nM"
- sample_smiles: "CC(=O)N1c2ccc(-c3ccc4c(c3)CCCN4S(C)(=O)=O)cc2N(C(=O)C2CCC2)C[C@@H]1C"
  system_tested: "BRD4 BD1 (Homo sapiens)"
  IC50: "100 to 1000 nM"

Given item CC(=O)N1c2ccc(-c3ccc(S(=O)(=O)N4CCCC4)cc3)cc2N(C(=O)c2ccco2)C[C@@H]1C , the value recorded as its IC50 is 100 to 1000 nM

Measured IC50, CC(=O)N1c2ccc(-c3ccc(S(C)(=O)=O)cc3)cc2N(C(=O)Nc2ccsc2)C[C@@H]1C : 1000 to 10000 nM

Sample COc1cc2c(cc1-c1cnn(C3CC3)c1)N(C(=O)OC(C)C)C[C@H](C)N2C(C)=O ; IC50 observed: 1000 to 10000 nM

// CC(=O)N1c2ccccc2N(Cc2ccc(N(C)C)cc2)C[C@@H]1C : IC50 value = > 10000 nM

###

# IC50 annotations
# system_tested: BRD4 BD1 (Homo sapiens, UniProt O60885)
# experimental_details: AlphaScreen binding assay, BRD4 Bromodomain 1

Some solved entries appear below for comparison.
- sample_smiles: "CC(=O)N1c2cc([N+](=O)[O-])c(-c3cnn(C4CC4)c3)cc2N(C(=O)OC(C)C)C[C@@H]1C"
  system_tested: "BRD4 BD1 (Homo sapiens, UniProt O60885)"
  endpoint_value: "100 to 1000 nM"
- sample_smiles: "CC(=O)N1c2ccccc2N(Cc2ccc(Cl)cc2Cl)C[C@@H]1C"
  system_tested: "BRD4 BD1 (Homo sapiens, UniProt O60885)"
  endpoint_value: "> 10000 nM"
- sample_smiles: "CC(=O)N1c2ccc(-c3cnn(Cc4cnccn4)c3)cc2N(C(=O)C2CC2)C[C@@H]1C"
  system_tested: "BRD4 BD1 (Homo sapiens, UniProt O60885)"
  endpoint_value: "1000 to 10000 nM"

Item: CC(=O)N1c2ccc(-c3cnn(C4CS(=O)(=O)C4)c3)cc2N(C(=O)OC2CCOCC2)C[C@@H]1C | IC50: 100 to 1000 nM

Value of IC50 reported for the compound CC(=O)N1c2ccccc2N(C(=O)CC2CCN(S(C)(=O)=O)CC2)C[C@@H]1C is > 10000 nM
